METRIC_NAME: melting point

Worked cases, answers included:
Problem: Find the measured melting point of CCC(CC)c1ccc(COc2ccc(-c3csc(CN(CC(=O)O)Cc4ccc(Cl)cc4)n3)cc2)cc1 and report it.
Solution: 154 to 157 °C

Problem: Answer with the recorded melting point for the compound listed here: CCCC(CCC)c1ccc(COc2ccc(-c3csc(CN(CC(=O)O)Cc4csc(C)n4)n3)c(C)c2)cc1
Solution: 98 to 103 °C

Problem: Look up and report measured melting point for this entry: CN(Cc1ccc(C(=O)O)cc1)c1nc(-c2ccc(CNc3ccc(C4CCCCC4)cc3)cc2)cs1
Solution: 206 to 210 °C

***
Problem: Determine from records and report melting point for CCCC(CCC)c1ccc(Cn2cc(-c3csc(CN4CCc5ccc(C(=O)O)cc5C4)n3)c3ccccc32)cc1
Solution: 124 to 128 °C

###

# MEASURED_ON: Recombinant human protein tyrosine phosphatase 1B (Homo sapiens, UniProt P18031)
# Construct: purchased UBI
# Sequence (P18031 whole entry): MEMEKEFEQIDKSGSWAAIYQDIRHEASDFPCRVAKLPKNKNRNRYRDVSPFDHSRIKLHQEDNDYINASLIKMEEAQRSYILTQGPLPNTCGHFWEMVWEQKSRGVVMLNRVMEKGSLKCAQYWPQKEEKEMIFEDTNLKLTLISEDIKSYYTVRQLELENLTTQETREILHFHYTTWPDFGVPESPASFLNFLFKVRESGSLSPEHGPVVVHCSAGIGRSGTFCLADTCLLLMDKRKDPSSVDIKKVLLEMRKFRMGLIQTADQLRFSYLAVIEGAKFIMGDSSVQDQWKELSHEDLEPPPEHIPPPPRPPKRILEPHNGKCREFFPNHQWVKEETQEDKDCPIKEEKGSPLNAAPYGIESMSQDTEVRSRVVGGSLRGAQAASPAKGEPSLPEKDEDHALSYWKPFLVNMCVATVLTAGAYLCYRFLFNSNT
# MEASUREMENT_PROTOCOL: Protein tyrosine phosphatase 1B inhibitory activity (malachite green, phosphorylated insulin receptor peptide substrate)
# Format: biochemical
# CONDITION_DESCRIPTION: recombinant human PTP1B, 60 min room temperature, absorbance 650 nm
Listed here are molecules together with their documented IC50.
Report the value in µM with no unit label.

Use the examples below as a reference point.
Problem: Please list IC50 recorded for the molecule CCCC(CCC)c1ccc(OCc2ccc(-c3csc(CN4Cc5ccccc5CC4C(=O)O)n3)cc2)cc1 (stereo not shown)
Solution: 0.066

Problem: Using known records, supply IC50 for CCCC(CCC)c1ccc(OCc2ccc(-c3csc(CN(CC(=O)O)C(=O)COc4ccc(C(C)C)cc4)c3)cc2)cc1
Solution: 0.15

Problem: For CN(Cc1ccc(C2CCCCC2)cc1)c1ccc(-c2csc(CN3CCC(C(=O)O)(c4ccccc4)CC3)n2)cc1 , write its IC50.
Solution: 0.23

Next:
Problem: Item CCCC(CCC)c1ccc(OCc2ccc(-c3ccc(CN(CC(=O)O)CC(=O)Nc4ccc(C(C)C)cc4)s3)cc2)cc1 : provide IC50
Solution: 0.12

Problem: Answer with the recorded IC50 of CCCC(CCC)c1ccc(OCc2ccc(-c3ccc(C(=O)N4CCN(c5ccc(C(=O)O)cc5)CC4)s3)cc2)cc1 only.
Solution: 0.15

Problem: Provide only the value of recorded IC50 for CCCC(CCC)c1ccc(OCc2ccc(-c3csc(CN(C)S(=O)(=O)c4ccc(C(=O)O)cc4)n3)cc2)cc1
Solution: 0.14

Problem: // fetch IC50 given entry CCCC(CCC)c1ccc(CN(C)c2ccc(-c3csc(CN(C)[C@H](C(=O)O)c4ccccc4)n3)cc2)cc1
Solution: 0.21

Problem: Tell me IC50 reported for CN(Cc1ccc(C(=O)O)cc1)c1nc(-c2ccc(C(=O)Nc3ccc(C4CCCCC4)cc3)cc2)cs1
Solution: 0.24

Problem: Please give the documented IC50 of CCCC(CCC)c1ccc(OCc2ccc(-c3csc(CN(CC(=O)O)Cc4ccccc4)n3)cc2)cc1
Solution: 0.22

Problem: Tell me IC50 reported for CCCC(CCC)c1ccc(OCc2ccc(-c3ccc(CN(CC(=O)O)Cc4nc5ccccc5n4C)s3)cc2)cc1
Solution: 0.15

###

Quick reference for melting point among some compounds

The following compounds have reported results that may help.
Problem: Note melting point for the compound shown: CN(Cc1ccc(CC(C)(C)C)cc1)c1ccc(-c2csc(CN(C)C(Cc3ccccc3)C(=O)O)n2)cc1 (centres unmarked) [Example 3-89]
Solution: 160 to 161 °C

Problem: Kindly indicate its recorded melting point. Item: CCCC(CCC)N(Cc1ccc(-c2csc(COc3ccc(C(=O)O)cn3)n2)cc1)c1ccc(C(C)C)cc1 [Example 1-6]
Solution: 141 to 143 °C

Problem: Look up and report measured melting point for this entry: CN(C[C@H]1CC[C@H](c2ccc(Cl)cc2)CC1)c1ccc(-c2csc(CN3CCC(C(=O)O)(c4ccccc4)CC3)n2)cc1 [Example 3-70]
Solution: 167 to 170 °C (dec.)

Problem: State, in one line, measured melting point of CCCC(CCC)c1ccc(OCc2ccc(-c3csc(CN(CC(=O)O)CC(=O)Nc4ccccn4)n3)cc2)cc1 [Example 1-100]
Solution: 133.5 °C

Problem: Item CC(C)c1ccc(Cn2c(-c3csc(CN4CCN(c5cccc(C(=O)O)c5)CC4)n3)nc3ccc(N4CCOCC4)cc32)cc1 [Example 1-186] : provide melting point
Solution: 128.5 to 131.5 °C

Problem: Output melting point of CCCC(CCC)c1ccc(OCc2ccc(-c3csc(CSc4ccc(C(=O)O)cc4)c3)cc2)cc1 [Example 4-60]
Solution: 133.9 to 135.1 °C

More entries:
Problem: Note down melting point recorded for CN(C[C@H]1CC[C@H](c2ccc(C(C)(C)C)cc2)CC1)c1ccc(-c2csc(CN(CC(=O)O)Cc3ccccc3)n2)cc1 [Example 3-28]
Solution: 192 to 195 °C

Problem: Identify the reported melting point for the following entry. CCCC(CCC)c1ccc(OCc2ccc(-c3ccc(CN(CC(=O)O)Cc4cc(C(F)(F)F)ccc4Cl)s3)cc2)cc1 [Example 4-75]
Solution: 92.6 to 94.7 °C

Problem: Supply recorded melting point for CCCC(CCC)c1ccc(CN(C)c2ccc(-c3csc(CSc4ccc(C(=O)O)cc4)n3)cc2)cc1 [Example 3-96] here.
Solution: 126 to 127 °C

Problem: Supply measured melting point of CN(Cc1ccc(C2CCCCC2)cc1)c1ccc(-c2csc(CN3CCN(CC(=O)O)CC3)n2)cc1 [Example 3-111] in your reply.
Solution: 190 to 191 °C

Problem: Give me measured melting point, please, for this compound: CCCC(CCC)c1ccc(OCc2ccc(-c3ccc(C(=O)N(CC(=O)O)Cc4ccc(N(C)C)cc4)s3)cc2)cc1 [Example 4-45]
Solution: 137 to 139 °C

Problem: Respond only with melting point recorded for CC(C)CCSc1ccc(CN(C)c2ccc(-c3csc(CN(CC(=O)O)Cc4ccccc4)n3)cc2)cc1 [Example 3-42]
Solution: 122 °C

Problem: Write down melting point measured for item CCCC(CCC)c1ccc(Cn2cc(-c3csc(CN4C[C@H](O)C[C@H]4C(=O)O)n3)c3ccccc32)cc1 [Example 1-180]
Solution: 105 to 107 °C

Problem: Give melting point for CCC(CC)c1ccc(N(Cc2ccc(-c3csc(CN(C)c4ccc(OCC(=O)O)c(C(=O)O)c4)n3)cc2)C(C)C)cc1 [Example 1-124]
Solution: 124 °C

###

METRIC_NAME: melting point

Worked examples follow.
Problem: State, in one line, measured melting point of CCCC(CCC)c1ccc(OCc2ccc(-c3csc(CC4CCN(c5ccc(C(=O)O)cc5)CC4)n3)cc2)cc1 [Example 1-181]
Solution: 174 to 175 °C

Problem: Using known records, supply melting point for CN(Cc1ccc(C2CCCCC2)cc1)c1ccc(-c2csc(CN(C)c3ccc(C(=O)O)cn3)n2)cc1 [Example 3-84]
Solution: 226 to 228 °C

Problem: Read off the recorded melting point for CC(C)CC(=O)N(CC(=O)O)Cc1nc(-c2ccc(N(C)Cc3ccc(CC(C)C)cc3)cc2)cs1 [Example 3-59]
Solution: 117 to 118 °C

Consider the record given below.
Problem: Give the reported melting point for this compound. CCCC(CCC)c1ccc(OCc2ccc(-c3ccc(CN(CC(=O)O)S(=O)(=O)c4ccc(Cl)s4)s3)cc2)cc1 [Example 4-100]
Solution: 151.2 to 154.4 °C

###

METRIC_NAME: melting point

Some solved entries appear below for comparison.
Problem: Recall and state the measured melting point for CCCC(CCC)c1ccc(COc2ccc(-c3csc(CN4Cc5ccccc5CC4C(=O)O)n3)cc2)cc1 (stereo not shown) [Example 3-118] .
Solution: 127 to 130 °C

Problem: Tell me measured melting point for CN(c1ccc(C(=O)O)cc1)c1nc(-c2ccc(C(=O)Nc3ccc(C4CCCCC4)cc3)cc2)cs1 [Example 1-52] please.
Solution: 250 °C (dec.)

Problem: Report measured melting point; entry is CN(Cc1ccccc1)c1ccc(-c2csc(CN(CC(=O)O)Cc3cccc4ccccc34)n2)cc1 [Example 3-54]
Solution: 78 to 83 °C

// next item, melting point requested
Problem: Could you please provide reported melting point for CCC(CC)c1ccc2nc(-c3csc(COc4ccc(C(=O)O)cc4)n3)n(Cc3ccc(C(C)=O)cc3)c2c1 [Example 3-131] ? Thanks!
Solution: 138 to 139 °C

###

Recorded measurements of melting point, one per entry

Problem: Indicate its recorded melting point; the compound in question is CCCC(CCC)c1ccc(N(Cc2ccc(-c3ccc(CN(CC(=O)O)Cc4nc(C(C)(C)C)cs4)s3)cc2)C(C)C)cc1
Solution: 78 to 82 °C

Problem: Indicate its recorded melting point; the compound in question is CC(C)CN(Cc1ccc(-c2csc(COc3cncc(C(=O)O)c3)n2)cc1)c1ccc(C(C)C)cc1
Solution: 196 to 197 °C

Problem: Could you please provide reported melting point for CCCC(CCC)c1ccc(N(C)Cc2ccc(-c3csc(COc4cncc(C(=O)O)c4)n3)cc2)cc1 ? Thanks!
Solution: 135 to 138 °C

Problem: Look up and state reported melting point for CCC(CC)c1ccc(COc2ccc(-c3csc(CN(CC(=O)O)Cc4ccccc4)n3)cc2)cc1
Solution: 144 to 146 °C

Problem: Identify the reported melting point for the following entry. CCCC(CCC)c1ccc(OCc2ccc(-c3csc(CN(CC(=O)O)CC(=O)N(c4ccccc4)C(C)C)n3)cc2)cc1
Solution: 115.5 °C

Others:
Problem: Name the recorded melting point of the item CN(Cc1ccc(C2CCC(F)CC2)cc1)c1ccc(-c2csc(CN(CC(=O)O)Cc3ccccc3)n2)cc1 (stereo not shown) in your answer.
Solution: 146 to 147 °C

Problem: Supply reported melting point belonging to this compound: CN(CCc1ccc(CC(C)(C)C)cc1)c1ccc(-c2csc(CN(CC(=O)O)Cc3ccccc3)n2)cc1
Solution: 133 to 134 °C
